Test system: MKN-45
Test: Antiproliferative activity against human MKN-45 cells assessed as reduction in cell proliferation measured after 4 days by MTS assay
Format: functional, cell-based
Conditions: MKN-45, 96 h
pIC50: −log10 of the molar value.
observation-type: pIC50

The recorded pIC50 for entry COc1ccc(-n2cc(C(=O)NCC(C)(C)N3CCOCC3)c(-c3ccccc3)n2)cc1 equals 4.57

The recorded pIC50 for entry CC(C)c1c(-c2ccccc2)[nH]c2c(C#N)cnn2c1=O equals 4.52

---

Molecular target: Lysine-specific demethylase 4A (Homo sapiens)
Sequence (O75164 whole entry): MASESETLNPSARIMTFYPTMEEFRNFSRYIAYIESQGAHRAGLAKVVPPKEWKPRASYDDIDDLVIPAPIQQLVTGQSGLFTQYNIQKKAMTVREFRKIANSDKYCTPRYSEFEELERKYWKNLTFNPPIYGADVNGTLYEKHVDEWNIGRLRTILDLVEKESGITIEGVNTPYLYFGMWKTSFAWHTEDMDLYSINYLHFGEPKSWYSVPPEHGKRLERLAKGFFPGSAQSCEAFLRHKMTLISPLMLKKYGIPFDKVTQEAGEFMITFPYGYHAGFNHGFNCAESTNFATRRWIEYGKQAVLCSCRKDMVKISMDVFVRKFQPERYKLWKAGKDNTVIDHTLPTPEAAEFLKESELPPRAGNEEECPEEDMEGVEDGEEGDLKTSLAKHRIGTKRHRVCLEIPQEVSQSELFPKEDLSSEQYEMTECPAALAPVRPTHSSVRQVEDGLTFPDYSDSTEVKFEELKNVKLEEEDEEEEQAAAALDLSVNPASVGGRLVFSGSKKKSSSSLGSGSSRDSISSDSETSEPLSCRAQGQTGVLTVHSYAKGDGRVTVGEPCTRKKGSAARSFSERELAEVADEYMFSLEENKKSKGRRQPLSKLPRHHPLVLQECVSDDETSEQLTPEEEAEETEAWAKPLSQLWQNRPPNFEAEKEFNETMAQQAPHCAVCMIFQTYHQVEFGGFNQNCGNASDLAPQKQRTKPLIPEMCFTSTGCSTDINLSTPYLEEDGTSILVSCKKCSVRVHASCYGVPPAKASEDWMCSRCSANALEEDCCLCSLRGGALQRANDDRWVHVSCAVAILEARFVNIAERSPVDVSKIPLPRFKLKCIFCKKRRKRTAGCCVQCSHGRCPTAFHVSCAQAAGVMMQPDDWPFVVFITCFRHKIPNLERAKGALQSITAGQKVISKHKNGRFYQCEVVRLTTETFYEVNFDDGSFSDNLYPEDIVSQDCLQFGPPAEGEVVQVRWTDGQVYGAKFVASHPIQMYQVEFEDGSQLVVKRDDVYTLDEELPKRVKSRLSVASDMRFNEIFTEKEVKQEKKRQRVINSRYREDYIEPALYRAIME
Experiment: Inhibition of KDM4A (unknown origin)
observation-type: pIC50
The scale used: pIC50 is minus the common logarithm of the concentration in molar units.

// returns pIC50 for COc1ccc(-n2cc(C(=O)NCC(C)(C)N3CCOCC3)c(-c3ccccc3)n2)cc1 with Lysine-specific demethylase 4A (Homo sapiens); value = 6.02

---

Biological target: Lysine-specific demethylase 5B (Homo sapiens, UniProt Q9UGL1)
Sequence (Q9UGL1 whole entry): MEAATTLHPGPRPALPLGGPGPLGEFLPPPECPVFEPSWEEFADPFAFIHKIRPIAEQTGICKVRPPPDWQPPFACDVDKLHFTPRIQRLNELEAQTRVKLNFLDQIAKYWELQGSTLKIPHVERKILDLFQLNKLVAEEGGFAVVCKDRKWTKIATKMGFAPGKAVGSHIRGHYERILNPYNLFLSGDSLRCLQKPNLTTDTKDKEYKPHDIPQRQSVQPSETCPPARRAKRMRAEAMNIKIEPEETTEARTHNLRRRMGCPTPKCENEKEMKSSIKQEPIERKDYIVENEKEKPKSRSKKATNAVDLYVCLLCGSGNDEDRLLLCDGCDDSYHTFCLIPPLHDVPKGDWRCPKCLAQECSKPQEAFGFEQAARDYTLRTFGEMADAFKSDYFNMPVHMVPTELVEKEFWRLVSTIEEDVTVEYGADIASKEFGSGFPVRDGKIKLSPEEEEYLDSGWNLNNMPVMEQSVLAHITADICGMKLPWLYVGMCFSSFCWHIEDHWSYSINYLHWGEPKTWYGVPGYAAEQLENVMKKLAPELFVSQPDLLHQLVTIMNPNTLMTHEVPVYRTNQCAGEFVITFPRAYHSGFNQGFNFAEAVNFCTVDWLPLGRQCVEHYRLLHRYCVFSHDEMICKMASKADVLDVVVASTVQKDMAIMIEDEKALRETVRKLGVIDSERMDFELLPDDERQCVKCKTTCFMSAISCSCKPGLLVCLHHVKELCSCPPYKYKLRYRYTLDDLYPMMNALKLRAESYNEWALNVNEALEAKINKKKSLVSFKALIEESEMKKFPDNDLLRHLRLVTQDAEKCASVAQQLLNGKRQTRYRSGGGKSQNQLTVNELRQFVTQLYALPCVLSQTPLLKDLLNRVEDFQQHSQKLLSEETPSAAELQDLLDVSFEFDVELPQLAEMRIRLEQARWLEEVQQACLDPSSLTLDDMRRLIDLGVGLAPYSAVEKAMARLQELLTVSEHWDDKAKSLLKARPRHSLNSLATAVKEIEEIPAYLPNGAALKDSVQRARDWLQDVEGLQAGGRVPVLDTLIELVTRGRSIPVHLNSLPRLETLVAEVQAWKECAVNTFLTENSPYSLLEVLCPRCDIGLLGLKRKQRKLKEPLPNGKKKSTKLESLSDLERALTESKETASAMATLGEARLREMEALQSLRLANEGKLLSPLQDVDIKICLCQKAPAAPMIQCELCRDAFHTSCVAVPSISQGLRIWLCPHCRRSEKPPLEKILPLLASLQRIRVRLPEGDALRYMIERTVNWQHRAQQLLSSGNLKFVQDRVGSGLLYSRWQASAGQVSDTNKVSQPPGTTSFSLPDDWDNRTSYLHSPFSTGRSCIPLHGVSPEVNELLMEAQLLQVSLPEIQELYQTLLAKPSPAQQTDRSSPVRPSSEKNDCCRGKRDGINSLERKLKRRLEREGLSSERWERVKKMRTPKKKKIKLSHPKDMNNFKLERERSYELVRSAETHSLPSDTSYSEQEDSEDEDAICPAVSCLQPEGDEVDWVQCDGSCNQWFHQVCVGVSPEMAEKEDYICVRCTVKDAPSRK
Assay: Inhibition of recombinant human N-terminal FLAG-tagged KDM5B expressed in Sf9 insect cells using biotin-H3K4me as substrate by ALPHA
observation-type: IC50 (µM)

The recorded IC50 for entry O=C(NCCN1CCOCC1)c1cn(-c2ccccc2)nc1-c1cccs1 equals 0.335

[1] COc1ccc(-n2cc(C(=O)NCCN3CCOCC3)c(-c3ccccc3)n2)cc1
[2] O=C(NCCN1CCOCC1)c1cn(-c2ccccc2)nc1-c1ccccc1
**Q:** Compare 1 and 2 and name the one whose reported IC50 is smaller. Choose, then provide that item's label.
**A:** 1

---

Biological target: UniProtKB Q9UGL1
Assay: Inhibition of recombinant human N-terminal FLAG-tagged KDM5B expressed in Sf9 insect cells at 10 uM using biotin-H3K4me as substrate by ALPHA relative to control
observation-type: inhibition (%)

Here are 5 compounds together with their reported answers.
// returns inhibition for COc1ccc(-n2cc(C(=O)NCC(C)(C)N3CCOCC3)c(-c3ccccc3)n2)cc1 with UniProtKB Q9UGL1; value = 95.8

// returns inhibition for Cc1ccc(-n2cc(C(=O)NCCN3CCOCC3)c(-c3ccccc3)n2)cc1 with UniProtKB Q9UGL1; value = 66.8

// returns inhibition for COc1ccc(-n2cc(C(=O)N3CCN(CCN4CCCC4)CC3)c(-c3ccccc3)n2)cc1 with UniProtKB Q9UGL1; value = 17.2

// returns inhibition for Cc1ccccc1-n1cc(C(=O)NCCN2CCOCC2)c(-c2ccccc2)n1 with UniProtKB Q9UGL1; value = -7.78

// returns inhibition for Cc1cncc(C(=O)NCCN2CCOCC2)c1 with UniProtKB Q9UGL1; value = 33.6

[a] Cc1cccc(-n2cc(C(=O)NCCN3CCOCC3)c(-c3ccccc3)n2)c1
[b] COc1ccc(-c2nn(-c3ccccc3)cc2C(=O)NCCN2CCOCC2)cc1
[c] O=C(NCCN1CCOCC1)c1cncc(-c2ccccc2)c1
**Q:** Thanks in advance: please rank these 3 entries by inhibition, highest to lowest. Reply format: the labels, ordered as requested.
**A:** b, c, a

---

Molecular target: Lysine-specific demethylase 5B (Homo sapiens, UniProt Q9UGL1)
Test: Inhibition of recombinant human N-terminal FLAG-tagged KDM5B expressed in Sf9 insect cells at 10 uM using biotin-H3K4me as substrate by ALPHA relative to control
observation-type: inhibition (%)

The recorded inhibition for entry COc1ccc(-n2cc(C(=O)NCCN3CCOCC3)c(-c3ccccc3)n2)cc1 equals 93

The recorded inhibition for entry Cc1n[nH]cc1C(=O)NCCN1CCOCC1 equals 21.5

[a] CCc1ccc(-n2cc(C(=O)NCCN3CCOCC3)c(-c3ccccc3)n2)cc1
[b] Cc1ccc(-c2nn(-c3ccc(C)cc3)cc2C(=O)N2CCN(CCN3CCCC3)CC2)cc1
**Q:** Recorded inhibition values differ for a and b ; which one is higher? Choose, then provide that item's label.
**A:** b
(b: 76.5%, a: 20%)

---

Target: Lysine-specific demethylase 5B (Homo sapiens)
Assay: Inhibition of recombinant human N-terminal FLAG-tagged KDM5B expressed in Sf9 insect cells using biotin-H3K4me as substrate by ALPHA
observation-type: IC50 (µM)

[A] Cc1ccc(-c2nn(-c3ccc(C)cc3)cc2C(=O)N2CCN(CCN3CCCC3)CC2)cc1
[B] CC(C)c1c(-c2ccccc2)[nH]c2c(C#N)cnn2c1=O
**Q:** Compare A and B and name the one whose reported IC50 is smaller. Choose, then provide that item's label.
**A:** B
(B: 0.0105 µM, A: 0.851 µM)

[A] COC(=O)CCNC(=O)c1cn(-c2ccc(C)cc2)nc1-c1ccccc1
[B] CC(C)(CNC(=O)c1cn(-c2ccc(Cl)cc2)nc1-c1ccccc1)N1CCOCC1
**Q:** Recorded IC50 values differ for A and B ; which one is higher? Choose, then provide that item's label.
**A:** B
(B: 0.541 µM, A: 0.251 µM)

---

Biological target: Lysine-specific demethylase 5B (Homo sapiens, UniProt Q9UGL1)
Test: Inhibition of recombinant human N-terminal FLAG-tagged KDM5B expressed in Sf9 insect cells at 10 uM using biotin-H3K4me as substrate by ALPHA relative to control
observation-type: inhibition (%)

// returns inhibition for CC(C)N(CCNC(=O)c1cn(-c2ccccc2)nc1-c1ccccc1)C(C)C with Lysine-specific demethylase 5B (Homo sapiens, UniProt Q9UGL1); value = 67

[P] Cc1ccc(NC(=O)c2cn(-c3ccc(C)cc3)nc2-c2ccccc2)cc1
[Q] COc1ccc(-n2nc(-c3ccccc3)nc2C(=O)NCC(C)(C)N2CCOCC2)cc1
**Q:** Recorded inhibition values differ for P and Q ; which one is higher? Choose, then provide that item's label.
**A:** P

[1] O=C(c1cn(-c2ccccc2)nc1-c1ccccc1)N1CCN(CCN2CCCC2)CC1
[2] CC(C)c1ccc(-n2cc(C(=O)NCCN3CCOCC3)c(-c3ccccc3)n2)cc1
**Q:** Compare 1 and 2 and name the one whose reported inhibition is smaller. Choose, then provide that item's label.
**A:** 2
(2: 14.8%, 1: 86.6%)

[A] O=C(NCCN1CCOCC1)c1cn(-c2ccccc2)nc1-c1ccc(Cl)cc1
[B] O=C(NCCN1CCOCC1)c1cn(-c2ccc(Cl)cc2)nc1-c1ccccc1
[C] Cc1ccc(-n2nc(-c3ccccc3)nc2C(=O)NCC(C)(C)N2CCOCC2)cc1
**Q:** Thanks in advance: please rank these 3 entries by inhibition, highest to lowest. Reply format: the labels, ordered as requested.
**A:** A, C, B
(A: 72%, C: 28.9%, B: 8.69%)

---

Molecular target: Lysine-specific demethylase 5B (Homo sapiens, UniProt Q9UGL1)
Assay: Inhibition of recombinant human N-terminal FLAG-tagged KDM5B expressed in Sf9 insect cells using biotin-H3K4me as substrate by ALPHA
pIC50: −log10 of the molar value.
observation-type: pIC50

Here are 6 compounds together with their reported answers.
The recorded pIC50 for entry CCc1ccc(-c2nn(-c3ccccc3)cc2C(=O)NCCN2CCOCC2)cc1 equals 5.87

The recorded pIC50 for entry COc1ccccc1-n1cc(C(=O)NCC(C)(C)N2CCOCC2)c(-c2ccccc2)n1 equals 7.03

The recorded pIC50 for entry C#CCNC(=O)c1cn(-c2ccccc2)nc1-c1ccccc1 equals 6.46

The recorded pIC50 for entry O=C(NCCN1CCOCC1)c1cn(-c2ccccc2)nc1-c1ccc(Cl)cc1 equals 6.24

The recorded pIC50 for entry O=C(NCCN1CCOCC1)c1c[nH]nc1-c1ccccc1 equals 5.27

The recorded pIC50 for entry O=C(NCCN1CCOCC1)c1cn(-c2ccccc2)nc1-c1ccncc1 equals 6.63

[a] O=C(c1cn(-c2ccccc2)nc1-c1ccccc1)N1CCN(CCN2CCCC2)CC1
[b] Cc1ccc(-n2cc(C(=O)N3CCN(CCN4CCCC4)CC3)c(-c3ccccc3)n2)cc1
**Q:** Compare a and b and name the one whose reported pIC50 is smaller. Choose, then provide that item's label.
**A:** a

---

Molecular target: UniProt:Q9UGL1
Assay: Inhibition of recombinant human N-terminal FLAG-tagged KDM5B expressed in Sf9 insect cells at 10 uM using biotin-H3K4me as substrate by ALPHA relative to control
observation-type: inhibition (%)

The recorded inhibition for entry O=C(NCCN1CCOCC1)c1cn(-c2ccccc2)nc1-c1ccncc1 equals 81.3

The recorded inhibition for entry O=C(NCCN1CCOCC1)c1cn(-c2ccccc2)nc1-c1cccs1 equals 75.4

The recorded inhibition for entry O=C(NCCN1CCOCC1)c1c[nH]nc1-c1ccccc1 equals 75.7

---

Biological target: Lysine-specific demethylase 5B (Homo sapiens, UniProt Q9UGL1)
Assay: Inhibition of recombinant human N-terminal FLAG-tagged KDM5B expressed in Sf9 insect cells using biotin-H3K4me as substrate by ALPHA
observation-type: IC50 (nM)

The recorded IC50 for entry CC(C)(CNC(=O)c1cn(-c2ccccc2)nc1-c1ccccc1)N1CCN(c2ccccc2)CC1 equals 200

The recorded IC50 for entry Cc1ccc(-n2cc(C(=O)NCC(C)(C)N3CCOCC3)c(-c3ccccc3)n2)cc1 equals 191

The recorded IC50 for entry COc1ccc(-c2nn(-c3ccccc3)cc2C(=O)NCCN2CCOCC2)cc1 equals 238
